target: UniProtKB P10398; test: ARAF kinase activity assay (AlphaLISA p-MEK detection); format: biochemical; conditions: Table A
Sequence (P10398 310-570 limits assumed): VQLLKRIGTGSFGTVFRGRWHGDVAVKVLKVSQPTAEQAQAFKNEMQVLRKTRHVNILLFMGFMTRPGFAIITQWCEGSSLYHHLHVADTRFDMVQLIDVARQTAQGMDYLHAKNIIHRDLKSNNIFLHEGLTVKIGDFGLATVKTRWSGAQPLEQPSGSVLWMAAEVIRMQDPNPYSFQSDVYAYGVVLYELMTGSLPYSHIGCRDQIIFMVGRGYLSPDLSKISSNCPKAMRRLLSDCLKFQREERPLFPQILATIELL
MEASUREMENT KIND: IC50

COMPOUND	RESULT
Cc1c(F)cccc1S(=O)(=O)Nc1ccc(F)c(Nc2ncnc3cnc(-n4cnc5c(-c6cccnc6)cccc54)nc23)c1F	< 10 nM
COc1ccc(S(=O)(=O)Nc2ccc(F)c(Nc3ncnc4cnc(-n5cnc6c(N)cccc65)nc34)c2F)c(C)c1Cl	> 20 nM
Cc1c(F)cccc1S(=O)(=O)Nc1ccc(F)c(Nc2ncnc3cnc(-n4cc(C(=O)N(C)Cc5ccncc5)c5ccccc54)nc23)c1F	10 to 20 nM
Cc1ccc2c(Nc3cccc(Cl)c3F)nccc2c1NC(=O)c1csc2c(N)ncnc12 [Belvarafenib, reference compound]	> 20 nM
